assay: protein stability index of a GFP-peptide fusion (yeast GPS) (PSI 1-4); higher = more stable; sorted into four equal gates, so the index is relative within each strain; settings: doa10∆
YES means recorded protein stability index is 3 or above; NO means it is below 3.

Ask | Hi, just wondering whether CRSCPYEFPIEGIEIYD [RPC11] shows protein stability index of 3 or higher.
Reply | NO

Ask | Identify whether the reported protein stability index of the following sequence is 3 or greater: LKEDDSSLYEASLNALK [RPN1]
Reply | YES

Ask | Is protein stability index at least 3? Consider VLDHQRAIPFRRFNSSI [RPL17A]
Reply | NO

Ask | Decide: protein stability index of SAKGPEIIPLQDYYIIG [MED6] >= 3?
Reply | YES

Ask | Can KNGTIVKKAVTVHSKSR [RPL19A] be said to have protein stability index at or above 3?
Reply | NO

Ask | Decide: is the reported value of protein stability index for VTNIRRIIQDNISPRLV [RRP46] equal to or greater than 3?
Reply | NO

Ask | Check if protein stability index >= 3 (inclusive). Item: MSQAVNAKKRVFKTHSY [RPS15]
Reply | NO

Ask | Would you say LLDILVKGETRIQNRVK [PRP8] shows protein stability index at minimum 3?
Reply | YES

Ask | Please indicate if the recorded protein stability index for AILKLLENMPHPWEQAK [PRP8] meets or exceeds 3.
Reply | NO

Ask | For this sequence, is measured protein stability index 3 or higher? PLPSHALTVQEVLNRVA [YDL116W/NUP84]
Reply | NO

Ask | Check if protein stability index >= 3 (inclusive). Item: KDRISSCSSKEKTLVLE [SMC4]
Reply | NO
